Biological target: Calpain I (Homo sapiens, UniProt P07384)
Construct: made in house
Sequence (P07384 1-714): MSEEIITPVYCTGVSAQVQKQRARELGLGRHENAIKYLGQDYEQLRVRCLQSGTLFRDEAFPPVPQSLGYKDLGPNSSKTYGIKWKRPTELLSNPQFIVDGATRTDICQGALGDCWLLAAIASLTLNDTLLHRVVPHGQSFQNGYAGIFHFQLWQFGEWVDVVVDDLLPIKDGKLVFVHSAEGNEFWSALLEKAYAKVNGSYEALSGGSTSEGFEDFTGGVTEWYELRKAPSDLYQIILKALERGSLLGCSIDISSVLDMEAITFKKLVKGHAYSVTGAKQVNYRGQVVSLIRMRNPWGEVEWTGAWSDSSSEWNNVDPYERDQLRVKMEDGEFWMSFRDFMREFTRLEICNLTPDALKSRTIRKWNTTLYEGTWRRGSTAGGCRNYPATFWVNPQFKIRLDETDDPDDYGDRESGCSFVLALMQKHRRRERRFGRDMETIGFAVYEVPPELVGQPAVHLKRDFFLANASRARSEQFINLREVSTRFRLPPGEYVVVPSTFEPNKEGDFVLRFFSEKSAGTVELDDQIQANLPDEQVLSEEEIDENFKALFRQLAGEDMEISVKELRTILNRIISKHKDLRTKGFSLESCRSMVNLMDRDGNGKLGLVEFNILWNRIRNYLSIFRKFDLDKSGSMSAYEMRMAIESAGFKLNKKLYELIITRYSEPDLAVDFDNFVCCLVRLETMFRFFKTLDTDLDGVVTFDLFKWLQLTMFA
Sequence (P04632 1-268 partner): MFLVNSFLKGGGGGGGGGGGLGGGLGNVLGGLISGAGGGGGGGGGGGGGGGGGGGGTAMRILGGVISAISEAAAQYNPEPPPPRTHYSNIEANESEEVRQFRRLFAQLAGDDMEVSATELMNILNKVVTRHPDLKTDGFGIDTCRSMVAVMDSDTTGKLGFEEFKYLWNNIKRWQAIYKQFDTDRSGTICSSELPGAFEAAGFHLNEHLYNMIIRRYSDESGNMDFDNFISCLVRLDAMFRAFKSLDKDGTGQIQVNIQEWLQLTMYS
Experiment: Inhibition of calpain I activity (Succ-Leu-Tyr-MNA substrate hydrolysis, fluorescence)
Format: biochemical
Settings: Table VII; calpain I, 0.2 mM Succ-Leu-Tyr-MNA, pH 7.5; a,b single diastereomers; read-out: IC50
pIC50: −log10 of the molar value.
property_measured: pIC50

IN: So what's the measured pIC50 for this one? O=C[C@H](Cc1ccccc1)NC(=O)C1Cc2ccccc2C(=O)N1 (single isomer, unassigned) [Cpd 50a]
OUT: ~5.30

IN: // lookup pIC50 for CN1C(=O)c2ccccc2CC1C(=O)N[C@H](C=O)Cc1ccccc1 (single isomer, unassigned) [Cpd 50c]
OUT: ~6.00

IN: Returns the measured pIC50 for the input compound. Input: O=C[C@H](Cc1ccccc1)NC(=O)C1Cc2ccccc2C(=O)N1 (single isomer, unassigned) [Cpd 50b]
OUT: ~5.30

====

What pIC50 was measured for each of the following?
Molecular target: Calpain I (Homo sapiens)
Construct: made in house
Sequence (P07384 1-714): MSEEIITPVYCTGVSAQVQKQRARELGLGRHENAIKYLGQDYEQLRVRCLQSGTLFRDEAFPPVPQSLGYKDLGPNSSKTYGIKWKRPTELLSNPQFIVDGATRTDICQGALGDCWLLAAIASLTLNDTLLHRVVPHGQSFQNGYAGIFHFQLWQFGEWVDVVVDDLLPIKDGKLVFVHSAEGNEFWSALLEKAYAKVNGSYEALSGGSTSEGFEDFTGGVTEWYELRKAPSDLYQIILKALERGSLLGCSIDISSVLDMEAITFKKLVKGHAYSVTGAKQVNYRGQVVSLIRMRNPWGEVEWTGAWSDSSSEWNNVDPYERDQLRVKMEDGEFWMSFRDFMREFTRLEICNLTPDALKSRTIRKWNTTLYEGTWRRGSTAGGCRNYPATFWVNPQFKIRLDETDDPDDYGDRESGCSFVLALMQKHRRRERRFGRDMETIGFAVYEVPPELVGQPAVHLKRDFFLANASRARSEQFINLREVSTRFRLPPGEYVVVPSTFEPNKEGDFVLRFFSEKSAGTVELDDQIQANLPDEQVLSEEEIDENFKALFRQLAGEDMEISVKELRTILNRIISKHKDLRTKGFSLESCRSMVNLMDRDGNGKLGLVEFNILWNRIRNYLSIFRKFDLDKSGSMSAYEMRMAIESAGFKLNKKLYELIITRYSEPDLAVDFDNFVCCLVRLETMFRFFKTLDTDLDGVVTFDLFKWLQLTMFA
Sequence (P04632 1-268 partner): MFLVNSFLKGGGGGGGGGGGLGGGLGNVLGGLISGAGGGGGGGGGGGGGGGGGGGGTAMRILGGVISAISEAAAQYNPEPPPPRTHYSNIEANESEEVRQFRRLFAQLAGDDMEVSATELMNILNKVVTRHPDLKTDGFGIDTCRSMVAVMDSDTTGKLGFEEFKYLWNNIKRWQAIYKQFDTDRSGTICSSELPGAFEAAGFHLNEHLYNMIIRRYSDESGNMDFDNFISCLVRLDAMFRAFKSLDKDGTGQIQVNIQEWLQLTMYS
Test: Inhibition of calpain I activity (Succ-Leu-Tyr-MNA substrate hydrolysis, fluorescence)
Type: biochemical
Conditions: Table IV; calpain I, 0.2 mM Succ-Leu-Tyr-MNA, pH 7.5; read-out: IC50
pIC50 (log units): -log10 of the concentration in mol/L.

IN: Form field: reported pIC50 of CCCCNC(=O)C(=O)[C@H](Cc1ccccc1)NC(=O)C1=Cc2cc3c(cc2S(=O)(=O)N1CC)OCCO3 [Cpd 27f]
OUT: 6.81

IN: Would you mind telling me what pIC50 value was observed for CCCCNC(=O)C(=O)[C@H](Cc1ccccc1)NC(=O)C1=Cc2cc3c(cc2S(=O)(=O)N1C)OCCO3 [Cpd 27e] ?
OUT: 6.68

IN: For the compound CN1C(C(=O)N[C@H](C=O)Cc2ccccc2)=Cc2cc3c(cc2S1(=O)=O)OCCO3 [Cpd 26b] , what pIC50 is on record?
OUT: 8.22

IN: // returns reported pIC50 for input CCCCNC(=O)C(=O)[C@H](Cc1ccccc1)NC(=O)C1=C(OC)c2ccccc2S(=O)(=O)N1C [Cpd 27g]
OUT: 6.05

IN: Given the entry COC1=C(C(=O)N[C@H](C=O)Cc2ccccc2)N(C)S(=O)(=O)c2ccccc21 [Cpd 26d] , report its measured pIC50.
OUT: 7.43
